Attribution: patent US7459480B2

biological target: human ACCβ (Homo sapiens, UniProt O00763); construct: The cloning of the full length human muscle-type ACCβ cDNA and expression in HEK293 cells; assay: Radiometric ACCβ enzyme inhibition assay ([14C]NaHCO3 incorporation into malonyl-CoA); conditions: human muscle-type ACCβ expressed in HEK293 cells; saturating substrate concentrations; 37° C., 45 min
Sequence (O00763 whole entry): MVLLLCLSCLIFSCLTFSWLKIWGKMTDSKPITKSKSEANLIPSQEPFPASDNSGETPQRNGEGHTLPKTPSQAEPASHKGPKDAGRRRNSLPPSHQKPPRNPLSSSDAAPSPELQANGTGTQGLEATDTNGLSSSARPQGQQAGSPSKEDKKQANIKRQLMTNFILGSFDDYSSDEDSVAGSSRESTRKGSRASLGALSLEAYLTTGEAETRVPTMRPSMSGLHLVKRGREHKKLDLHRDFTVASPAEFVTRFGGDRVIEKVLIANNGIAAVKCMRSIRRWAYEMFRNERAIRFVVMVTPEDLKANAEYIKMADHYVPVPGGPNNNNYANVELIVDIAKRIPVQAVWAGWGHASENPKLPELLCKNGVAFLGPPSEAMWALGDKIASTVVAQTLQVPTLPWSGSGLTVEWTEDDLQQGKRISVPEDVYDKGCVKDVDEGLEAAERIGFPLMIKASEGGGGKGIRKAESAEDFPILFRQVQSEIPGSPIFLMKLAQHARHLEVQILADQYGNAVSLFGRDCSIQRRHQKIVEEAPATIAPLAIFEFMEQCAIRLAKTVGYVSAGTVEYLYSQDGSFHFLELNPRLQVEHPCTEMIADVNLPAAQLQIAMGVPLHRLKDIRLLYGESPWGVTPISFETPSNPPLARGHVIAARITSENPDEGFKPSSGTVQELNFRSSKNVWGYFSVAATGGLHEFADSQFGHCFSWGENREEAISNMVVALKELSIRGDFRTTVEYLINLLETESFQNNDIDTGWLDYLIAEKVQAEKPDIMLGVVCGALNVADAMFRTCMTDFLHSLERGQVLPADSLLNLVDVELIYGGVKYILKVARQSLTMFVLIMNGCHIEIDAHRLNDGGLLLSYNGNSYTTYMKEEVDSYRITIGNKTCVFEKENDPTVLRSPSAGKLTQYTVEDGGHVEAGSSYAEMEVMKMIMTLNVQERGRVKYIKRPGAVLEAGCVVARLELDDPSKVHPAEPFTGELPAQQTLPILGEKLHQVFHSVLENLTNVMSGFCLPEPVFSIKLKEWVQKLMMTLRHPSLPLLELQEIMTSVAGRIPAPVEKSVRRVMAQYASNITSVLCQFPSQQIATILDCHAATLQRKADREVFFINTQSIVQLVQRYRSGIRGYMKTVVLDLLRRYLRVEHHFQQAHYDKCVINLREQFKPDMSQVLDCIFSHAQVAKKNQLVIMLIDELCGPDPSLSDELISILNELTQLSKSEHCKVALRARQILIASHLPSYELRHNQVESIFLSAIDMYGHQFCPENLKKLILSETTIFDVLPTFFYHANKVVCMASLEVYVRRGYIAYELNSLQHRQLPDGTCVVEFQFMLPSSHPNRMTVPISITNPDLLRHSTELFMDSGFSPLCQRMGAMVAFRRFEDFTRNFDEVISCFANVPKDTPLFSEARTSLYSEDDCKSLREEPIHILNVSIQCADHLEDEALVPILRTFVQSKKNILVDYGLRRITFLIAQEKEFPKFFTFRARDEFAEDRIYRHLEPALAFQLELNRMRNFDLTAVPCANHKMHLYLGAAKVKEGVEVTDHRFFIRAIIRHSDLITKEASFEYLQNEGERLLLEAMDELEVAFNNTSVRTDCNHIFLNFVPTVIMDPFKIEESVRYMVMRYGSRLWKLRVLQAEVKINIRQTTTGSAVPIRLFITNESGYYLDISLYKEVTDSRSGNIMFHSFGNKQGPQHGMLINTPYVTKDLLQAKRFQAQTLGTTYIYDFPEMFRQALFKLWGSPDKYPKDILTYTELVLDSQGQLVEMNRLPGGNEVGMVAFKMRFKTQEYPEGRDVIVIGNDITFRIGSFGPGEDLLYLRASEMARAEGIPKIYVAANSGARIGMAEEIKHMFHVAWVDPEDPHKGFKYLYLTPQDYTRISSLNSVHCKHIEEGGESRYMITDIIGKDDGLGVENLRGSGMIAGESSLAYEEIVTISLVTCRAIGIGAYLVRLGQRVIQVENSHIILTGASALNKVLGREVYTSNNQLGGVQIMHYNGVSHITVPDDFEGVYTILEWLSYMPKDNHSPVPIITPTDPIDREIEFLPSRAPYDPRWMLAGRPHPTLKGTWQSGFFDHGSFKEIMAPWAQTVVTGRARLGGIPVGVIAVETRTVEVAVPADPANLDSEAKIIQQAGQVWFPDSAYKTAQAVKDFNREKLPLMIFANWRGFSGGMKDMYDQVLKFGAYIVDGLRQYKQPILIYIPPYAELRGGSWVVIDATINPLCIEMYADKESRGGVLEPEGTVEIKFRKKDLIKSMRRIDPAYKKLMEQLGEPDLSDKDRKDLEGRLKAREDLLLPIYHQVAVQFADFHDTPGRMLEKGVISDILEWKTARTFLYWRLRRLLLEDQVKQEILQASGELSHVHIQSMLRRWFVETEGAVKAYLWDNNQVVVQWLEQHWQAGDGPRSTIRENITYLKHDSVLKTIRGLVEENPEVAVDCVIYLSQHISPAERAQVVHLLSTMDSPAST
pIC50: −log10 of the molar value.
// label = TRUE if pIC50 is not less than 5, otherwise FALSE

1. CCCOc1ccc(C#Cc2ccc3c(c2)OCC(C)(C)CO3)cc1
TRUE
2. CCOC(=O)c1ccc(C#Cc2ccc3c(c2)OCC(C)(C)CO3)cn1
TRUE
3. CCOC(=O)c1ccc(OCc2ccc3c(c2)OCC(C)(C)CO3)cc1
TRUE
4. CCOC(=O)c1cccc(C#Cc2ccc3c(c2)OCC(C)(C)CO3)c1
TRUE
5. CCOc1ccc(C#Cc2ccc3c(c2)OCC(C)(C)CO3)cc1
TRUE
6. COc1cccc(C#Cc2ccc3c(c2)OCC(C)(C)CO3)c1
FALSE
7. CC1(C)COc2ccc(C#Cc3ccc4c(c3)CCO4)cc2OC1
FALSE
